Target: T1, full-length human B7RP-1 on cells (human, UniProt O75144 19-302)
T1 sequence (looked up): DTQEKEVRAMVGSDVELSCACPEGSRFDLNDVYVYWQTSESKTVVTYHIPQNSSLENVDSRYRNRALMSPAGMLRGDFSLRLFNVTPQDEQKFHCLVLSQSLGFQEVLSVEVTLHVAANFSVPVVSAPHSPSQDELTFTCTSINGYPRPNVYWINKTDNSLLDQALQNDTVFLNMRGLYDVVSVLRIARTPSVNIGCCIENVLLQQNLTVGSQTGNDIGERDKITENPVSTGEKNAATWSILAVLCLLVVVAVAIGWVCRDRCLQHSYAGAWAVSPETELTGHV
Assay: cell-based or functional assay
Assign labels as follows, please: label 1 for CHO (co-stimulation assay with hB7RP1 transfected CHO cells, T cell proliferation) EC50 below 1000 pM; label 0 for CHO (co-stimulation assay with hB7RP1 transfected CHO cells, T cell proliferation) EC50 equal to or exceeding 1000 pM.

Reference set (4 entries):
>>> class_name("anti-B7RP1 human monoclonal antibody 2H (antibody, V domains shown) VH: EVQLVESGGGLVQPGGSLRLSCVGSGFTFSSYWMSWVRQAPGKGLEWVAYIKQDGSEKYYVDSVKGRFTISRDNAKNSLYLQMNSLRAEDTAVYYCARDGILWFGDIPTYWGQGILVTVSS VL: DIQMTQSPSSLSASVGDRVTITCRASQGISNWLAWYQQKPEKAPKSLIYTASSLQSGVPSRFSGSGSGTDFTLTISSLQPEDFATYYCQQYNSYPRTFGQGTKVEIK")
"label 0"
>>> class_name("anti-B7RP1 human monoclonal antibody 16H germline (antibody, V domains shown) VH: EVQLVESGGGLVQPGGSLRLSCAASGFTFSSYWMSWVRQAPGKGLEWVAYIKQDGNEKYYVDSVKGRFTISRDNAKNSLYLQMNSLRAEDTAVYYCAREGILWFGDLPTFWGQGTLVTVSS VL: DIQMTQSPSSLSASVGDRVTITCRASQGISNWLAWYQQKPEKAPKSLIYAASSLQSGVPSRFSGSGSGTDFTLTISSLQPEDFATYYCQQYDSYPRTFGQGTKVEIK")
"label 1"
>>> class_name("ICOS-Fc fusion protein (Fc fusion, UniProt Q9Y6W8 21-140, looked up, Fluorescently labelled in the flow cytometry assays; also called ICOS reagent; not shown: Fc part) EINGSANYEMFIFHNGGVQILCKYPDIVQQFKMQLLKGGQILCDLTKTKGSGNTVSIKSLKFCHSQLSNNSVSFFLYNLDHSHANYYFCNLSIFDPPPFKVTLTGGYLHIYESQLCCQLK")
"label 0"
>>> class_name("anti-B7RP1 human monoclonal antibody 16H (antibody, V domains shown, Fluorescently labelled in the flow cytometry assays; also called 16H mAb; B7RP-1 16H) VH: EVQLVESGGGLVQPGGSLRLSCAGSGFTFSSYWMSWVRQAPGKGLEWVAYIKQDGNEKYYVDSVKGRFTISRDNAKKSLYLQMNSLRAEDTAVYYCAREGILWFGDLPTFWGQGILVTVSS VL: DIQMTQSPSSLSASVGDRVTITCRASQGISNWLAWYQQKPEKAPKSLIYAASSLQSGVPSRFSGSGSGTDFTLTISSLQPEDFATYYCQQYDSYPRTFGQGTKVEIK")
"label 1"

As a next step, examine the binder that follows.
// query Is it true that CHO (co-stimulation assay with hB7RP1 transfected CHO cells, T cell proliferation) EC50 reported for anti-B7RP1 human monoclonal antibody 5D (antibody, V domains shown, Fluorescently labelled in the flow cytometry assays; also called 5D mAb; B7RP-1 5D) VH: QVQLVESGGGVVQPGRSLRLSCAASGFTFSSYGMHWVRQAPGKGLEWVAVIWYDGSKKYYADSVEGRFTISRDNSKNTLYLQMNSLRAEDTAVFYCARDLNIMVWGIFDYWGQGTLVTVSS VL: EIVLTQSPATLSLSPGERATLSCRASQSVSSYLAWYQQKPGQAPRLLIYDASNRATGIPARFSGSGSGTDFTLTISSLEPEDFAVYYCQQRNNWPWTFGQGTKVEIK is less than 1000 pM?
// result label 0
